- subjectOfTest: T1, recombinant human PD-1 dimer expressed with a C-terminal mouse IgG2a Fc tag (hPD-1-mFc) (human)
- T1 construct: also called human PD-1-mFc
- testProtocol: BLI Octet Red 96, captured hPD-L1-hFc
Label rule, in plain words: binding of the mixture of 100 nM hPD-1-mFc and 500 nM antibody of -0.01 nm and up is True, under -0.01 nm is False.

| binder | className |
| --- | --- |
| H1M7800N (antibody, mouse IgG1, V domains shown, mouse IgG1 Fc; human variable regions) VH: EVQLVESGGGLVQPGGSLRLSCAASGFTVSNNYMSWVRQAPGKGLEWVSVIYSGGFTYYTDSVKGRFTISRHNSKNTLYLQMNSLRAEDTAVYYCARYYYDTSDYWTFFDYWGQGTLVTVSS VL: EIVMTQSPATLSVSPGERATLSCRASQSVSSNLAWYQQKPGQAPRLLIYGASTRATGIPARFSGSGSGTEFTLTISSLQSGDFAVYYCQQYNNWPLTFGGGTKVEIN | True |
| H2aM7791N (antibody, mouse IgG2a, V domains shown, mouse IgG2a Fc; human variable regions; also called H2M7791N) VH: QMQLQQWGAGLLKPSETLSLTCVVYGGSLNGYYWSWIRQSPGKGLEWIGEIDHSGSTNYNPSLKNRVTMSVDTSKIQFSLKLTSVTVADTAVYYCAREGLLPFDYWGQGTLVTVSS VL: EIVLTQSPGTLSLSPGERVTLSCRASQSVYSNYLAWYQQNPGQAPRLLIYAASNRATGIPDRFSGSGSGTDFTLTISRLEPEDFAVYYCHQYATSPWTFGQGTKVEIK | True |
| H2aM7796N (antibody, mouse IgG2a, V domains shown, mouse IgG2a Fc; human variable regions; also called H2M7796N) VH: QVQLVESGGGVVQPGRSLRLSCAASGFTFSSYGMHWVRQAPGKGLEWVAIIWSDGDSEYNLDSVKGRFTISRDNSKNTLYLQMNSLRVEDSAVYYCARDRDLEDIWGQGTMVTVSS VL: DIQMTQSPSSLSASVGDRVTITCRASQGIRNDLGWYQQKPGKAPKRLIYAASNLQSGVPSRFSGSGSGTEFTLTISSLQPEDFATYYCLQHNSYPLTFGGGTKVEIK | False |

Turning now to a further binder:
Is it the case that H1M7789N (antibody, mouse IgG1, V domains shown, mouse IgG1 Fc; human variable regions; also called H1M7789W) VH: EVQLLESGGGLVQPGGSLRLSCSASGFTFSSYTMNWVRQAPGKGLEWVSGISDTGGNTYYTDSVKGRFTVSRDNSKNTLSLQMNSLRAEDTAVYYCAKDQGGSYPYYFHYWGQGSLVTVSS VL: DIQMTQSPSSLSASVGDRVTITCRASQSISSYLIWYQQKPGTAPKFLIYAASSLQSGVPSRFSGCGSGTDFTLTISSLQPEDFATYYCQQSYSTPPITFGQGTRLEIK has binding of the mixture of 100 nM hPD-1-mFc and 500 nM antibody reaching or exceeding -0.01 nm? True
